molecular target: Complement factor D (Homo sapiens, UniProt P00746); assay: Factor D Assay: Human factor D (purified from human serum, Complement Technology, Inc.) at 80 nM final concentration is incubated with test compound at various concentrations for 5 minutes at room temperature in 50 mM Tris, 1M NaCl, pH 7.5. A synthetic substrate Z-L-Lys-SBzl and DTNB (Ellman's reagent) are added to final concentrations of 100 μM each. The increase in color is recorded at OD405 nm in a microplate in kinetic mode over 30 minutes with 30 second time points in a spectrofluorimeter. IC50 values are calculated by non-linear regression from the percentage of inhibition of complement factor D activity as a function of test compound concentration.
Sequence (P00746 whole entry): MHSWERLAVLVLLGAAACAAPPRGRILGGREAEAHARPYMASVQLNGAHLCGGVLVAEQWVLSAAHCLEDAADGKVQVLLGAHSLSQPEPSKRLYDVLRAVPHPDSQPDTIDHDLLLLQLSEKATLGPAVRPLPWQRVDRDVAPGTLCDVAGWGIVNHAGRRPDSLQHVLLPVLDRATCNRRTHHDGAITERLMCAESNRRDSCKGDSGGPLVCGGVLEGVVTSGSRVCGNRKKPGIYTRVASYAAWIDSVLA
pIC50: −log10 of the molar value.
endpoint: pIC50

Below, each entry is followed by its recorded pIC50 result.
NC(=O)c1nn(CC(=O)N2C[C@H](F)C[C@H]2C(=O)Nc2cccc(Cl)n2)c2ccc(-c3ccnnc3)cc12	> 6.00
CC(=O)c1cn(CC(=O)N2C[C@H](F)C[C@H]2C(=O)Nc2cccc(Cl)n2)c2ccc(-c3ccnnc3)cc12	> 6.00

Read the next record carefully.
get_value(item= CC(=O)c1cn(CC(=O)N2C[C@H](F)C[C@H]2C(=O)Nc2cccc(Br)n2)c2ccc(-c3ccc(C)nn3)cc12 , readout=pIC50) returns > 6.00
